- System: Saccharomyces cerevisiae
- protocol summary: Zone of inhibition for Saccharomyces cerevisiae IFO 0203 at 0.05 ug/disc by conventional paper disk method
- Assay type: functional
measurement kind: zone of inhibition at 0.05 µg/disc (mm)
Value expressed in mm; do not type the unit.

Request - read-out zone of inhibition at 0.05 µg/disc | tested on Saccharomyces cerevisiae | molecule `COc1ccnc(C(=O)N[C@H]2COC(=O)[C@H](Cc3ccccc3)[C@@H](OC(=O)C(C)C)[C@H](C)OC2=O)c1O`
22

Request - read-out zone of inhibition at 0.05 µg/disc | tested on Saccharomyces cerevisiae | molecule `CC(C)C(=O)O[C@H]1[C@H](C)OC(=O)[C@@H](NC(=O)c2ccccc2O)COC(=O)[C@@H]1Cc1ccccc1`
8

Request - read-out zone of inhibition at 0.05 µg/disc | tested on Saccharomyces cerevisiae | molecule `CC(C)C(=O)O[C@H]1[C@H](C)OC(=O)[C@@H](NC(=O)c2cccc(NC=O)c2O)COC(=O)[C@@H]1Cc1ccccc1`
12

Request - read-out zone of inhibition at 0.05 µg/disc | tested on Saccharomyces cerevisiae | molecule `COc1ccnc(C(=O)N[C@H]2COC(=O)[C@H](Cc3ccccc3)[C@@H](OC(=O)C(C)C)[C@H](C)OC2=O)c1OC(C)=O`
12

Request - read-out zone of inhibition at 0.05 µg/disc | tested on Saccharomyces cerevisiae | molecule `CC(C)C(=O)O[C@H]1[C@H](C)OC(=O)[C@@H](NC(=O)c2cccc(N(C)C)c2O)COC(=O)[C@@H]1Cc1ccccc1`
8

Request - read-out zone of inhibition at 0.05 µg/disc | tested on Saccharomyces cerevisiae | molecule `CC(C)C(=O)O[C@H]1[C@H](C)OC(=O)[C@@H](NC(=O)c2cccnc2O)COC(=O)[C@@H]1Cc1ccccc1`
12

Request - read-out zone of inhibition at 0.05 µg/disc | tested on Saccharomyces cerevisiae | molecule `CCOC(=O)COc1c(OC)ccnc1C(=O)N[C@H]1COC(=O)[C@H](Cc2ccccc2)[C@@H](OC(=O)C(C)C)[C@H](C)OC1=O`
0

====

- System: Saccharomyces cerevisiae
- protocol summary: Zone of inhibition for Saccharomyces cerevisiae IFO 0203 at 0.25 ug/disc by conventional paper disk method
- Type: functional
Please respond with reported zone of inhibition at 0.25 µg/disc for every item in the list.
Value expressed in mm; do not type the unit.

// zone of inhibition at 0.25 µg/disc lookup, key: `COc1ccnc(C(=O)N[C@H]2COC(=O)[C@H](Cc3ccccc3)[C@@H](OC(=O)C(C)C)[C@H](C)OC2=O)c1OC`
0

// zone of inhibition at 0.25 µg/disc lookup, key: `COc1ccnc(C(=O)N[C@H]2COC(=O)[C@H](Cc3ccccc3)[C@@H](OC(=O)C(C)C)[C@H](C)OC2=O)c1OC(=O)CCCCCC(=O)Oc1ccccc1`
18

// zone of inhibition at 0.25 µg/disc lookup, key: `CC(C)C(=O)O[C@H]1[C@H](C)OC(=O)[C@@H](NC(=O)c2cccc(N(C)C)c2O)COC(=O)[C@@H]1Cc1ccccc1`
14

// zone of inhibition at 0.25 µg/disc lookup, key: `COc1ccnc(C(=O)N[C@H]2COC(=O)[C@H](Cc3ccc(NC=O)cc3)[C@@H](OC(=O)C(C)C)[C@H](C)OC2=O)c1O`
0

// zone of inhibition at 0.25 µg/disc lookup, key: `COc1ccnc(C(=O)N[C@H]2COC(=O)[C@H](Cc3ccc(N(C)C)cc3)[C@@H](OC(=O)C(C)C)[C@H](C)OC2=O)c1O`
19

// zone of inhibition at 0.25 µg/disc lookup, key: `CC(C)C(=O)O[C@H]1[C@H](C)OC(=O)[C@@H](NC(=O)c2cccc(NC=O)c2O)COC(=O)[C@@H]1Cc1ccccc1`
17

// zone of inhibition at 0.25 µg/disc lookup, key: `COc1ccc(O)c(C(=O)N[C@H]2COC(=O)[C@H](Cc3ccccc3)[C@@H](OC(=O)C(C)C)[C@H](C)OC2=O)n1`
27

====

- Tested on: Saccharomyces cerevisiae
- protocol summary: Zone of inhibition for Saccharomyces cerevisiae IFO 0203 at 0.25 ug/disc by conventional paper disk method
- Assay type: functional
Entry flag: Fulfilled if zone of inhibition at 0.25 µg/disc reaches 20 mm; Not fulfilled if it does not.

Does CCCC[C@H]1C(=O)O[C@H](C)[C@H](NC(=O)c2cccc(NC=O)c2O)C(=O)O[C@@H](C)[C@@H]1OC(=O)CC(C)C [ANTIMYCIN A3] have a reported zone of inhibition at 0.25 µg/disc of at least 20 mm?
Fulfilled

Does `CC(C)C(=O)O[C@H]1[C@H](C)OC(=O)[C@@H](NC(=O)c2nc3ccccc3nc2O)COC(=O)[C@@H]1Cc1ccccc1` have a reported zone of inhibition at 0.25 µg/disc of at least 20 mm?
Fulfilled

Does `CCOC(=O)COc1c(OC)ccnc1C(=O)N[C@H]1COC(=O)[C@H](Cc2ccccc2)[C@@H](OC(=O)C(C)C)[C@H](C)OC1=O` have a reported zone of inhibition at 0.25 µg/disc of at least 20 mm?
Not fulfilled

Does `COc1ccnc(C(=O)N[C@H]2COC(=O)[C@H](Cc3ccc(N)cc3)[C@@H](OC(=O)C(C)C)[C@H](C)OC2=O)c1O` have a reported zone of inhibition at 0.25 µg/disc of at least 20 mm?
Not fulfilled

Does `COc1ccnc(C(=O)N[C@H]2COC(=O)[C@H](Cc3ccccc3)[C@@H](OC(=O)C(C)C)[C@H](C)OC2=O)c1OC(C)=O` have a reported zone of inhibition at 0.25 µg/disc of at least 20 mm?
Not fulfilled

Does `CC(C)C(=O)O[C@H]1[C@H](C)OC(=O)[C@@H](NC(=O)c2cccnc2O)COC(=O)[C@@H]1Cc1ccccc1` have a reported zone of inhibition at 0.25 µg/disc of at least 20 mm?
Not fulfilled

====

Please respond with reported zone of inhibition at 0.125 µg/disc for every item in the list.
- System: Saccharomyces cerevisiae
- protocol summary: Zone of inhibition for Saccharomyces cerevisiae IFO 0203 at 0.125 ug/disc by conventional paper disk method
- Type: functional
Value expressed in mm; do not type the unit.

// zone of inhibition at 0.125 µg/disc lookup, key: `COc1ccnc(C(=O)N[C@H]2COC(=O)[C@H](Cc3ccccc3)[C@@H](OC(=O)C(C)C)[C@H](C)OC2=O)c1OC`
0

// zone of inhibition at 0.125 µg/disc lookup, key: `COc1ccnc(C(=O)N[C@H]2COC(=O)[C@H](Cc3ccc(N)cc3)[C@@H](OC(=O)C(C)C)[C@H](C)OC2=O)c1O`
8

// zone of inhibition at 0.125 µg/disc lookup, key: `CC(C)C(=O)O[C@H]1[C@H](C)OC(=O)[C@@H](NC(=O)c2cccc(NC=O)c2O)COC(=O)[C@@H]1Cc1ccccc1`
16

// zone of inhibition at 0.125 µg/disc lookup, key: `COc1ccnc(C(=O)N[C@H]2COC(=O)[C@H](Cc3ccccc3)[C@@H](OC(=O)C(C)C)[C@H](C)OC2=O)c1OC(C)=O`
14

// zone of inhibition at 0.125 µg/disc lookup, key: `COc1ccnc(C(=O)N[C@H]2COC(=O)[C@H](Cc3ccccc3)[C@@H](OC(=O)C(C)C)[C@H](C)OC2=O)c1OC(=O)CCCCCC(=O)Oc1ccccc1`
15

// zone of inhibition at 0.125 µg/disc lookup, key: `COc1ccc(O)c(C(=O)N[C@H]2COC(=O)[C@H](Cc3ccccc3)[C@@H](OC(=O)C(C)C)[C@H](C)OC2=O)n1`
24

// zone of inhibition at 0.125 µg/disc lookup, key: `COc1ccnc(C(=O)N[C@H]2COC(=O)[C@H](Cc3ccccc3)[C@@H](OC(=O)C(C)C)[C@H](C)OC2=O)c1O`
26

====

- Test system: Saccharomyces cerevisiae
- protocol summary: Zone of inhibition for Saccharomyces cerevisiae IFO 0203 at 0.125 ug/disc by conventional paper disk method
- Type: functional
Please respond with reported zone of inhibition at 0.125 µg/disc for every item in the list.
Value expressed in mm; do not type the unit.

Request - read-out zone of inhibition at 0.125 µg/disc | tested on Saccharomyces cerevisiae | compound `CC(C)C(=O)O[C@H]1[C@H](C)OC(=O)[C@@H](NC(=O)c2cccc(N(C)C)c2O)COC(=O)[C@@H]1Cc1ccccc1`
12

Request - read-out zone of inhibition at 0.125 µg/disc | tested on Saccharomyces cerevisiae | compound `CC(C)C(=O)O[C@H]1[C@H](C)OC(=O)[C@@H](NC(=O)c2nc3ccccc3nc2O)COC(=O)[C@@H]1Cc1ccccc1`
20

Request - read-out zone of inhibition at 0.125 µg/disc | tested on Saccharomyces cerevisiae | compound `CC(C)C(=O)O[C@H]1[C@H](C)OC(=O)[C@@H](NC(=O)c2ccccc2O)COC(=O)[C@@H]1Cc1ccccc1`
11

Request - read-out zone of inhibition at 0.125 µg/disc | tested on Saccharomyces cerevisiae | compound `CC(C)C(=O)O[C@H]1[C@H](C)OC(=O)[C@@H](NC(=O)c2cccnc2O)COC(=O)[C@@H]1Cc1ccccc1`
16

Request - read-out zone of inhibition at 0.125 µg/disc | tested on Saccharomyces cerevisiae | compound `COc1ccnc(C(=O)N[C@H]2COC(=O)[C@H](Cc3ccc([N+](=O)[O-])cc3)[C@@H](OC(=O)C(C)C)[C@H](C)OC2=O)c1O`
18

Request - read-out zone of inhibition at 0.125 µg/disc | tested on Saccharomyces cerevisiae | compound `COc1ccnc(C(=O)N[C@H]2COC(=O)[C@H](Cc3ccccc3)[C@@H](OC(=O)C(C)C)[C@H](C)OC2=O)c1OC(=O)CCCCCC(=O)O`
21

Request - read-out zone of inhibition at 0.125 µg/disc | tested on Saccharomyces cerevisiae | compound `COc1ccnc(C(=O)N[C@H]2COC(=O)[C@H](Cc3ccc(N(C)C)cc3)[C@@H](OC(=O)C(C)C)[C@H](C)OC2=O)c1O`
15
